The following molecules are listed with their measured inhibition values.
- Target Of Assay: Pantothenate synthetase (Mycobacterium tuberculosis (strain ATCC 25618 / H37Rv))
- Test Summary: Coupled enzyme confirmation of inhibitors against recombinant Mtb PanC (AID 375);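 also: 0% = full reaction with vehicle and 100% = no enzyme background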
- Test Parameters: coupled enzyme assay; at 10 µM, hits give high values
Quick note: give the figure in %, leave out the unit.

// known answers, use as guide
> print(dat)
                                    molecule  measured.quantity  numeric.value
 1  O=C(CN1C2CCC1CC(O)(c1cccnc1)C2)Nc1ccc2c(c1)OCO2 (stereo unspecified)         inhibition             11
 2       O=C(O)CCn1c(=O)c2ccccc2c2ccccc2c1=O         inhibition              1
 3   O=C(c1ccc2c(c1)c(=O)oc1ccccc12)N1CCCCC1         inhibition              6
 4  CN(C)CCOC(C)(c1ccccc1)c1ccccn1 (stereo unspecified)         inhibition              0
 5    CCOC(=O)c1sc2ncn(/N=C/N(C)C)c(=O)c2c1C         inhibition              8
 6  Cc1cccc(CC(=O)Nc2c3c(nn2-c2cccc(Cl)c2)CS(=O)C3)c1 (stereo unspecified)         inhibition              2
 7  CCOC(=O)c1c(C)oc2c1c(C=NCc1ccccn1)c(O)c1ccccc12         inhibition              3
 8  CCOc1ccc(NC(=O)CN(c2cc(C)cc(C)c2)S(=O)(=O)c2c(C)noc2C)cc1         inhibition              7
 9    CCN1C(=O)Cc2cc(S(=O)(=O)N3CCOCC3)ccc21         inhibition              9
10      COCCCNS(=O)(=O)c1ccc2c(c1)CCN2C(C)=O         inhibition              0

Qu. Field request: inhibition | item: "CS(=O)(=O)N1CCc2cc(C(=O)N3CCCCC3)ccc21"
Ans. 2

Qu. Field request: inhibition | item: "Cc1c(O)c(CN2CCCCC2)cc2c3c(c(=O)oc12)CCC3"
Ans. 2

Qu. Field request: inhibition | item: "Cc1ccc(Cn2c(=N)c(C(=O)NCc3ccco3)cc3c(=O)n4ccccc4nc32)cc1"
Ans. 1

Qu. Field request: inhibition | item: "O=C(O)CCc1ccc(-c2cccs2)n1CCC(=O)O"
Ans. 1

Qu. Field request: inhibition | item: Cn1c(=O)oc2cc(S(=O)(=O)N3CCCC(C(=O)NCC4COc5ccccc5O4)C3)ccc21 (stereo unspecified)
Ans. 0

* * *

- Target Of Assay: Pantothenate synthetase (Mycobacterium tuberculosis (strain ATCC 25618 / H37Rv))
- Test Summary: Coupled enzyme confirmation of inhibitors against recombinant Mtb PanC (AID 375);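 also: 0% = full reaction with vehicle and 100% = no enzyme background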
- Test Parameters: coupled enzyme assay; at 10 µM, hits give high values
Kindly return condition met if reported inhibition is no lower than 2%; return condition not met if it is lower.

The following molecules have reported results that may help.
> print(dat)
                                   molecule                           target.of.assay     category.label
1  COC(=O)c1cc2oc(C)cc2n1CC(=O)Nc1ccc(C)c(C)c1  Pantothenate synthetase (Mycobacterium tuberculosis (strain ATCC 25618 / H37Rv))  condition not met
2  CN(Cc1cccs1)C(=O)CCc1ccc(S(=O)(=O)N2CCOCC2)cc1  Pantothenate synthetase (Mycobacterium tuberculosis (strain ATCC 25618 / H37Rv))  condition not met
3               CCCN(CC1CC1)C(=O)Nc1ccccc1C  Pantothenate synthetase (Mycobacterium tuberculosis (strain ATCC 25618 / H37Rv))  condition not met
4  Cc1cc(C)cc(N(CC(=O)NC2CCC(C)CC2)S(=O)(=O)c2c(C)noc2C)c1 (stereo unspecified)  Pantothenate synthetase (Mycobacterium tuberculosis (strain ATCC 25618 / H37Rv))  condition not met
5  C=CCN1C(=O)/C(=C2/Sc3ccccc3N2C)SC1=Nc1c(C)n[nH]c1C  Pantothenate synthetase (Mycobacterium tuberculosis (strain ATCC 25618 / H37Rv))  condition not met

Qu. Determine whether this molecule has inhibition no lower than 2%: "COCc1nnc(NC(=O)c2ccc(S(=O)(=O)N(C)c3ccccc3)cc2)o1"
Ans. condition not met

Qu. Determine whether this molecule has inhibition no lower than 2%: Cc1noc(C)c1S(=O)(=O)N1CCCC(C(=O)NCCc2ccc(Cl)cc2)C1 (stereo unspecified)
Ans. condition met

Qu. Determine whether this molecule has inhibition no lower than 2%: Cn1nc(-c2ccc(C(=O)NCC3CCCO3)cc2)c2ccccc2c1=O (stereo unspecified)
Ans. condition met

Qu. Determine whether this molecule has inhibition no lower than 2%: "CCOC(=O)c1cc2sc(C)cc2n1CC(=O)Nc1cccc(C)c1C"
Ans. condition not met
